- SYSTEM: T1, GST-Hera_RBD (Thermus thermophilus, UniProt O07897 424-510)
- T1 sequence: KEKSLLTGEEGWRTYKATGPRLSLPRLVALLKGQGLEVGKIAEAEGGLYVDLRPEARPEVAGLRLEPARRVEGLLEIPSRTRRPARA
- TEST_METHOD_NOTES: EMSA; 6 uM RNA; 12% glycerol; Anisotropy: 50 mM Tris/HCl pH 7.5, 150 mM NaCl, 5 mM MgCl2 (Fig 2), 25 C, 50 nM RNA; EMSA: same Tris/NaCl, 12% glycerol, 25 C; NMR: 25 mM Bis-Tris/HCl pH 6.0, 50 mM NaCl, 10% D2O, 37 C
- SETTINGS: protein: recombinant; tags: N-terminal GST; label: 5'-fluorescein; hairpin with 5' single strand
MEASURED_QUANTITY: Kd

Memo: GCAGGUCCCAAGGGUUGGGCUGUUCGCCCAUU (structured_RNA) [32mer] , reported Kd: ~7 µM
